target: σ1-receptor (Cavia porcellus, UniProt Q60492); construct: guinea pig brains were homogenized; from tissue; host or cells: guinea pig brain membranes; test: Sigma-1 receptor binding, [3H](+)-pentazocine, brain membranes; set-up: species or system guinea pig; details: 10^−7 M
Sequence (Q60492 whole entry): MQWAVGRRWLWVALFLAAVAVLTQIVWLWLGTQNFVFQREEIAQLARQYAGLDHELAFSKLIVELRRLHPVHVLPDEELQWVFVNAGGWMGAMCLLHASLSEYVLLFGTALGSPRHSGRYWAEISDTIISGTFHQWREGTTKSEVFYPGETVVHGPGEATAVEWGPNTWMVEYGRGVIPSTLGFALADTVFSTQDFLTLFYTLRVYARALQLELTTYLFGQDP
Counter-ions that a name gives are not always drawn.
ENDPOINT: inhibition at 0.1 µM (%)
Express the result in % but write the number alone.

// below: answered molecules
Cc1cc(OCCN2CCCCC2)nn1-c1ccc(Cl)c(Cl)c1 [Example 5]; 108
CC(C)c1cc(OCCN2CCCCC2)nn1-c1ccc(Cl)c(Cl)c1 [Example 35]; 102
Cc1cc(OCCCCN2CCOCC2)nn1-c1ccc(Cl)c(Cl)c1.Cl [Example 22, hydrochloride]; 97

# value lookup — system σ1-receptor (Cavia porcellus, UniProt Q60492), readout inhibition at 0.1 µM, item CC(C)c1cc(OCCN2CCOCC2)nn1-c1ccc(Cl)c(Cl)c1.Cl [Example 31, hydrochloride]
68.6

# value lookup — system σ1-receptor (Cavia porcellus, UniProt Q60492), readout inhibition at 0.1 µM, item Cc1cc(OCCCCN2CCC(c3ccccc3)CC2)nn1-c1ccc(Cl)c(Cl)c1.Cl [Example 28, hydrochloride]
95.1

# value lookup — system σ1-receptor (Cavia porcellus, UniProt Q60492), readout inhibition at 0.1 µM, item CCN(CC)CCOc1cc(C)n(-c2ccc(Cl)c(Cl)c2)n1 [Example 2, hydrochloride]
95.1

Measured values drawn from patent US8470867B2 for this set.
